# target-under-test: Alpha-ketoglutarate-dependent dioxygenase FTO (Homo sapiens, UniProt Q9C0B1)
# Sequence (Q9C0B1 whole entry): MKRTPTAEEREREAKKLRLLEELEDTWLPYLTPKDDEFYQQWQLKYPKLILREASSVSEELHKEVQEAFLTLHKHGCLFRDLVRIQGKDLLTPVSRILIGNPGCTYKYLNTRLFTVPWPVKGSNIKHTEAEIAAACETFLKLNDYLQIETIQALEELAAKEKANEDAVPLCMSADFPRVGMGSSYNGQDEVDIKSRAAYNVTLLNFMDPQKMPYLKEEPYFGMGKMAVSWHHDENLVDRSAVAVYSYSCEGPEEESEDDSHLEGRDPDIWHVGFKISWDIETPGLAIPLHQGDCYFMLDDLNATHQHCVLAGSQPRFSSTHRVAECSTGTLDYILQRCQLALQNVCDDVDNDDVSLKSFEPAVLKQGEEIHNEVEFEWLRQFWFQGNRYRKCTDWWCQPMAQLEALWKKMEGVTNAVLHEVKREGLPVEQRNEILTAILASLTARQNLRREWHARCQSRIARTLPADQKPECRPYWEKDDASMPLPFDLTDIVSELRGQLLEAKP
# assay-notes: Inhibition of FTO (unknown origin) by PAGE based assay
quantity: pIC50
Answer as the number alone; pIC50 is minus log10 of concentration in mol/L.

**Q:** Please report the recorded pIC50 for Cc1noc(C)c1-c1cc(Cl)c(Nc2cccc(CN3CCCOCC3)c2C(=O)O)c(C2CC2)c1 .
**A:** 5.64

* * *

# System: MOLM-13
# assay-notes: Antiproliferative activity against human MOLM-13 cells incubated for 72 hrs by CCK8 assay
# Format: functional, cell-based
# condition-context: MOLM-13, 72 h
quantity: pIC50
Answer as the number alone; pIC50 is minus log10 of concentration in mol/L.

Some compounds with known pIC50 results, for comparison:
{"test-smiles": "Cc1noc(C)c1-c1cc(F)c(Nc2cccc(CN3CCCOCC3)c2C(=O)O)c(F)c1F", "pIC50": 5.82}
{"test-smiles": "Cc1noc(C)c1-c1cc(Cl)c(Nc2cccc(CN3CCCOCC3)c2C(=O)O)c(C(F)(F)F)c1", "pIC50": 5.66}
{"test-smiles": "CCc1cc(-c2c(C)noc2C)cc(CC)c1Nc1cccc(CN2CCCOCC2)c1C(=O)O", "pIC50": 5.82}
{"test-smiles": "CCc1cc(-c2ccncc2)cc(CC)c1Nc1cccc(CN2CCCOCC2)c1C(=O)O", "pIC50": 5.82}
{"test-smiles": "Cc1noc(C)c1-c1c(F)c(F)c(Nc2cccc(CN3CCCOCC3)c2C(=O)O)c(F)c1F", "pIC50": 5.82}

**Q:** Please report the recorded pIC50 for Cc1n[nH]c(C)c1-c1cc(Cl)c(Nc2cccc(CN3CCCOCC3)c2C(=O)O)c(Cl)c1 .
**A:** 5.82

**Q:** Consider next the compound Cc1noc(C)c1-c1cc(Cl)c(Nc2cccc(CN3CCCOCC3)c2C(=O)O)c(C2CC2)c1 in the same way.
**A:** 5.77

**Q:** Consider next the compound CCc1cc(-c2ccncc2)cc(CC)c1Nc1cccc(CN2CC(N(C)C)C2)c1C(=O)O in the same way.
**A:** 5.82

* * *

# AUC(0-inf) per entry
# assay-notes: AUC(0 to infinity) in ICR mouse at 10 mg/kg, po measured upto 24 hrs by LC-MS/MS analysis
# Assay type: ADME, organism-based
# Design: time < 24 hrs, dose 10 mg/kg, route po
# condition-context: in vivo
Numbers only here, please. The scale is ng·h/mL.

{"test-smiles": "Cc1noc(C)c1-c1cc(Cl)c(Nc2cccc(CN3CCCOCC3)c2C(=O)O)c(C2CC2)c1", "quantity": "AUC(0-inf)", "reported-result": 103000}

Now take the following compound into account.
**Q:** Please report the recorded AUC(0-inf) for Cc1noc(C)c1-c1cc(F)c(Nc2ccccc2C(=O)O)c(Cl)c1 .
**A:** 68800

* * *

# assay-notes: Permeability of the compound by PAMPA
# Format: ADME
# condition-context: read-out: permeability
# Papp per entry
Numbers only here, please. The scale is nm/s.

Some compounds with known Papp results, for comparison:
{"test-smiles": "Cc1noc(C)c1-c1cc(Cl)c(Nc2cccc(CN3CCCOCC3)c2C(=O)O)c(C(F)(F)F)c1", "unit-info": "nm/s", "Papp": 141}
{"test-smiles": "Cc1n[nH]c(C)c1-c1cc(Cl)c(Nc2cccc(CN3CCCOCC3)c2C(=O)O)c(Cl)c1", "unit-info": "nm/s", "Papp": 45}

**Q:** Please report the recorded Papp for Cc1noc(C)c1-c1cc(F)c(Nc2ccccc2C(=O)O)c(Cl)c1 .
**A:** 174

**Q:** Consider next the compound Cc1noc(C)c1-c1cc(Cl)c(Nc2cccc(CN3CCCOCC3)c2C(=O)O)c(C2CC2)c1 in the same way.
**A:** 214

Where these numbers come from: ChEMBL document CHEMBL5346954
